Origin of measurements: patent US8952042B2

- procedure-text: Pharmacokinetics in rat after intravenous administration 1 mg/kg
- Assay type: in vivo, Male Sprague Dawley Rat
- experimental-parameters: male, Sprague Dawley, plasma, iv; rat, 1 mg/kg i.v., 1.00 hr
property-name: concentration at 1 hr (ng/mL)

{"columns": ["compound", "property-name", "result-number"],
 "data": [
  ["O=C(O)c1ccc(C2CC2c2ccc(OCc3c(-c4c(Cl)cccc4Cl)noc3C3CC3)cc2Cl)cc1 (racemic)", "concentration at 1 hr", 84.6]
]}

a = CC(C)c1onc(-c2c(Cl)cccc2Cl)c1COc1ccc(/C=C/c2cccc(C(=O)O)c2)c(Cl)c1 [GW4064, reference compound]
b = O=C(O)c1cccc(C2CC2c2ccc(OCc3c(-c4c(Cl)cccc4Cl)noc3C3CC3)cc2Cl)c1 (racemic)
[ask] Hi there, can you help? I need to know whether a or b has lower measured concentration at 1 hr. Your choice should be expressed through its label.
[reply] a
(a: 68.3 ng/mL, b: 202 ng/mL)

* * *

- procedure-text: Pharmacokinetics in rat after oral administration 5 mg/kg
- Format: in vivo, Male Sprague Dawley Rat
- experimental-parameters: male, Sprague Dawley, plasma, oral 5 mg/kg
property-name: half-life (h)

P = O=C(O)c1cccc(C2CC2c2ccc(OCc3c(-c4c(Cl)cccc4Cl)noc3C3CC3)cc2Cl)c1 (racemic) [Example 4]
Q = O=C(O)c1ccc(C2CC2c2ccc(OCc3c(-c4c(Cl)cccc4Cl)noc3C3CC3)cc2Cl)cc1 (racemic) [Example 12]
[ask] Would you let me know which has the greater half-life value, P or Q ? Your choice should be expressed through its label.
[reply] P
(P: 4.08 h, Q: 2.78 h)

* * *

- assay-system: human FXR alpha ligand binding domain (Homo sapiens, UniProt Q96RI1)
- Construct: made in house; host or cells: E. coli BL21(DE3), vector pDEST15
- procedure-text: FRET activity assay (ligand mediated cofactor peptide interaction, LANCE)
- Type: biochemical
- experimental-parameters: potency range
- Procedure: Determination of a ligand mediated cofactor peptide interaction to quantify ligand binding to the nuclear receptor FXR was performed as follows: Preparation of human FXR alpha ligand binding domain: The human FXRalpha LBD was expressed in E. coli strain BL21(DE3) as an N-terminally GST tagged fusion protein. The DNA encoding the FXR ligand binding domain was cloned into vector pDEST15 (Invitrogen). Expression was under control of an IPTG inducible T7 promoter. […] The protein was analysed by SDS-Page. […]
property-name: EC50

[ask] // query EC50 value for entry O=C(NCCS(=O)(=O)O)c1ccc(C2CC2c2ccc(OCc3c(-c4c(Cl)cccc4Cl)noc3C3CC3)cc2Cl)cc1 (stereo not shown) [Example 15]
[reply] 10 to 100 nM

[ask] // next record CC(C)(O)c1onc(-c2c(Cl)cccc2Cl)c1COc1ccc(C2CC2c2ccc(C(=O)O)cc2)c(Cl)c1 (stereo not shown) [Example 17]
[reply] > 100 nM

[ask] // next record O=C(O)c1ccc(C2CC2c2ccc(OCc3c(-c4c(Cl)cccc4Cl)noc3C3CC3)cc2Cl)cc1 (racemic) [Example 12]
[reply] > 100 nM

[ask] // next record Clc1cc(OCc2c(-c3c(Cl)cccc3Cl)noc2C2CC2)ccc1C1CC1c1ccc(-c2nnn[nH]2)nc1 (stereo not shown) [Example 7]
[reply] 10 to 100 nM

[ask] // next record Cn1nc(C(=O)O)c2ccc(C3CC3c3ccc(OCc4c(-c5c(Cl)cccc5Cl)noc4C4CC4)cc3Cl)cc21 (single isomer, unassigned; (-)) [Example 13b]
[reply] < 10 nM

[ask] // next record Cn1nc(C(=O)O)c2ccc(C3CC3c3ccc(OCc4c(-c5c(Cl)cccc5Cl)noc4C4CC4)cc3Cl)cc21 (single isomer, unassigned; (+)) [Example 13a]
[reply] 10 to 100 nM

[ask] // next record O=C(O)CNC(=O)c1ccc(C2CC2c2ccc(OCc3c(-c4c(Cl)cccc4Cl)noc3C3CC3)cc2Cl)cc1 (stereo not shown) [Example 28]
[reply] > 100 nM

* * *

- procedure-text: Pharmacokinetics in rat after oral administration 5 mg/kg
- Assay type: in vivo, Male Sprague Dawley Rat
- experimental-parameters: male, Sprague Dawley, plasma, oral 5 mg/kg
property-name: Tmax (min)

{"columns": ["compound", "units-text", "Tmax"],
 "data": [
  ["O=C(O)c1ccc(C2CC2c2ccc(OCc3c(-c4c(Cl)cccc4Cl)noc3C3CC3)cc2Cl)cc1 (racemic)", "min", 30],
  ["O=C(O)c1cccc(C2CC2c2ccc(OCc3c(-c4c(Cl)cccc4Cl)noc3C3CC3)cc2Cl)c1 (racemic)", "min", 30]
]}

* * *

- assay-system: human FXR alpha ligand binding domain (Homo sapiens, UniProt Q96RI1)
- Sequence (Q96RI1 187-472 isoform Q96RI1-2): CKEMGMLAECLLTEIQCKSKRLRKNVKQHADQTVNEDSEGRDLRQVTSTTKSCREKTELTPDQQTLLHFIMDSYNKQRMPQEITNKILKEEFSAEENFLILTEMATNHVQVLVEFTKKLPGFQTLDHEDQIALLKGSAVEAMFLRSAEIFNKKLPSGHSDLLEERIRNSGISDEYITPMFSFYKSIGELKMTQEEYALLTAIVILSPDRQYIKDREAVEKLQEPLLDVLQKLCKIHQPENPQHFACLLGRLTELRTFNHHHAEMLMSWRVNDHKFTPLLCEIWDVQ
- procedure-text: FRET activity assay (ligand mediated cofactor peptide interaction, LANCE)
- experimental-parameters: potency range
property-name: EC50

{"columns": ["compound", "property-name", "result"],
 "data": [
  ["O=C(O)c1cccc(C2CC2c2ccc(OCc3c(-c4c(Cl)cccc4Cl)noc3C3CC3)cc2Cl)c1 (racemic) [Example 4]", "EC50", "10 to 100 nM"],
  ["CC(C)c1nnn(-c2c(Cl)cccc2Cl)c1COc1ccc(C2CC2c2cccc(C(=O)O)c2)c(Cl)c1 (stereo not shown) [Example 3]", "EC50", "10 to 100 nM"],
  ["CC(C)n1nc(C(=O)O)c2ccc(C3CC3c3ccc(OCc4c(-c5c(Cl)cccc5Cl)noc4C4CC4)cc3Cl)cc21 (stereo not shown) [Example 21]", "EC50", "< 10 nM"],
  ["Clc1cc(OCc2c(-c3c(Cl)cccc3Cl)noc2C2CC2)ccc1C1CC1c1ccc(-c2nnn[nH]2)cc1 (stereo not shown) [Example 16]", "EC50", "> 100 nM"],
  ["O=C(O)c1ccc(C2CC2c2ccc(OCc3c(-c4c(Cl)cccc4Cl)noc3C3CC3)cc2Cl)cc1 (single isomer, unassigned; (-)) [Example 12c]", "EC50", "10 to 100 nM"],
  ["O=C(O)c1cccc(C2CC2c2ccc(OCc3c(-c4c(Cl)cncc4Cl)noc3C3CC3)cc2Cl)c1 (stereo not shown) [Example 1]", "EC50", "10 to 100 nM"]
]}

[ask] // query EC50 value for entry CC(C)c1onc(-c2c(Cl)cccc2Cl)c1COc1ccc(C2CC2c2cccc(C(=O)O)c2)c(Cl)c1 (stereo not shown) [Example 6]
[reply] 10 to 100 nM

* * *

- procedure-text: Pharmacokinetics in rat after oral administration 5 mg/kg
- Type: in vivo, Male Sprague Dawley Rat
- experimental-parameters: male, Sprague Dawley, plasma, oral 5 mg/kg, read-out: AUC(0-8)
property-name: AUC(0-t) (ng·h/mL)

A = O=C(O)c1cccc(C2CC2c2ccc(OCc3c(-c4c(Cl)cccc4Cl)noc3C3CC3)cc2Cl)c1 (racemic)
B = O=C(O)c1ccc(C2CC2c2ccc(OCc3c(-c4c(Cl)cccc4Cl)noc3C3CC3)cc2Cl)cc1 (racemic)
[ask] Hi there, can you help? I need to know whether A or B has lower measured AUC(0-t). Your choice should be expressed through its label.
[reply] A

* * *

- procedure-text: Pharmacokinetics in rat after oral administration 5 mg/kg
- Type: in vivo, Male Sprague Dawley Rat
- experimental-parameters: male, Sprague Dawley, plasma, oral 5 mg/kg
property-name: Cmax (ng/mL)

P = O=C(O)c1cccc(C2CC2c2ccc(OCc3c(-c4c(Cl)cccc4Cl)noc3C3CC3)cc2Cl)c1 (racemic)
Q = O=C(O)c1ccc(C2CC2c2ccc(OCc3c(-c4c(Cl)cccc4Cl)noc3C3CC3)cc2Cl)cc1 (racemic)
[ask] Would you let me know which has the greater Cmax value, P or Q ? Your choice should be expressed through its label.
[reply] Q
(Q: 210 ng/mL, P: 93.1 ng/mL)

* * *

- procedure-text: Pharmacokinetics in monkeys after oral administration 12 mg/kg
- Format: in vivo, Cynomolgus monkeys (Macacca mulatta)
- experimental-parameters: Cynomolgus, cynomolgus monkey, plasma, oral 12 mg/kg, Avg, read-out: Vz/F
property-name: Vd/F (L/kg)

1 = O=C(O)c1cccc(C2CC2c2ccc(OCc3c(-c4c(Cl)cccc4Cl)noc3C3CC3)cc2Cl)c1 (racemic)
2 = O=C(O)c1ccc(C2CC2c2ccc(OCc3c(-c4c(Cl)cccc4Cl)noc3C3CC3)cc2Cl)cc1 (racemic)
[ask] Would you let me know which has the greater Vd/F value, 1 or 2 ? Your choice should be expressed through its label.
[reply] 2
(2: 5.19 L/kg, 1: 1.93 L/kg)
